// data source = the nanobody polyreactivity screen of Harvey et al. (2022)

procedure.details: yeast display, Sf9 membrane polyspecificity reagent, FACS + sequencing; frameworks hold sequencing errors
measure: polyreactivity (PSR sort gate)

Lookup: Which measured polyreactivity (PSR sort gate) value corresponds to `QVQLVESGGGLVQAGGSLRLSCAASGSTFRVYAMGWYRPAPGKVRELVAAISGSGTSTYYADSVKGRFTISRDNAKNTVYLQMNSLKPEDTAVYYCATGKNYWRGYEYWGQGTQVTVSS` ?
Found: high polyreactivity

Lookup: Sample `QVQLVESGGGLVQAGGSLRLSCAASGFTFWYYAMGWYRQAPGKERELVAAISWSGGSTSYADSVKGRFTISRDNAKNTVYLQMNSLKREDTAVYYCAASDYYYYSWRPGDTWYEYWGQGTQVSVSS` — what was its polyreactivity (PSR sort gate)?
Found: high polyreactivity

====

procedure.details: yeast display, Sf9 membrane polyspecificity reagent, FACS + sequencing; frameworks hold sequencing errors
measure: polyreactivity (PSR sort gate)

Guide cases for polyreactivity (PSR sort gate), answers given:
Lookup: Which measured polyreactivity (PSR sort gate) value corresponds to `QVQLVESGRGLVQAGGSLRLSCAASGSIFTHYAMVWYRQAPGKERELVATISNGDGSTYYADSVKGRFTISRDNAKNTVYLQMNSLKPEDTAVYYCNVDDFSQYADDSWGYEYWGQGTQVTVSS` ?
Found: low polyreactivity

Lookup: Fill in the blank: the reported polyreactivity (PSR sort gate) of `QVQLVESGGGIVQAGGSLRLSCAASGFIFSSYAMGWYRQAPGKERELVAAITVRAGRTYYADSVKGRFTISRDNAKKTVYLQMNSLKPEDTAVYYCNAVSTAVIGYEYDYWGQGTQVTVSS` is ____.
Found: high polyreactivity

Lookup: // polyreactivity (PSR sort gate) lookup, key: `QVQLVESGGGLVQAGGSLRLSCAASGSIFDSNAKGWYRQAPGKERELVAAITGSGSTNYADSVKGRFTFSRDNAKNTVYLQMNSLKPEDTAVYYCNAQAPYTEFDYWGQGTQVTVSS`
Found: low polyreactivity

Lookup: Quick one: polyreactivity (PSR sort gate) for `QVQLVESGGGLVQAGGSLRLSCAASGFTFVYYVMGWYRQAPGKEREKVAAINAGGGSTYYADSVKGRFTISRDNAKNTVYLQMHSLKPEDSAVYYCATRPRYYYFRYDYWGQGTQVTVSS` ?
Found: high polyreactivity

Kindly consider the entry below.
Lookup: Field request: polyreactivity (PSR sort gate) | item: `QFQLVESGGGLVQAGGSLRLSCAASGSIFEPNAMGWYRQAPGKEREFVAAISGSGGSTYYADSVKGRFTISRDNAKNTVYLQMNSLIQEDTAVYYCATRGKRSYFRTFYYWGQGTQVTVSS`
Found: high polyreactivity

====

procedure.details: yeast display, Sf9 membrane polyspecificity reagent, FACS + sequencing; frameworks hold sequencing errors
measure: polyreactivity (PSR sort gate)

The cases that follow already have their polyreactivity (PSR sort gate) on record.
Lookup: Name the reported polyreactivity (PSR sort gate) value associated with the sequence `QVQLVESGGGLVQAGGSLRLSCAASGSIIYLYAMGWYRQAPGKEREFVAAITWRGASTYYADSVKGRFTISRYNAKNTVYLQMNSLKPEDTAVYYCAAKLPRVYGYGFDYWGQGTQVTVSS`
Found: low polyreactivity

Lookup: Which polyreactivity (PSR sort gate) value is on record for `QVQLVESGGGLVQAGGSLRLSCAASGSLFRINAMGWYRQAPGKERELVAAITGRVGSTYYADTVKGRFTISRDNAQNTVYLQMNSLKPEDTAVYYCAARAGSSRYTREYRYDYWGQGTQVTVSS` ?
Found: high polyreactivity

Lookup: Please report the recorded polyreactivity (PSR sort gate) for `QVQLVESGGGLVQAGGSLRLSCAASGSTFNRNAMGWYRQAPGKERELVAAISWRGDSTSYADSVKGRFTISRDNAKNTVYLQMNSLKPEDTAVSYCAADYYYGQGQPDEDNYWGQGTQVTVSS` .
Found: low polyreactivity

Lookup: Could you share which polyreactivity (PSR sort gate) value was measured for `QVQLVESGGGLVQAGGSLRLSCAASGRTFEANAMGWYRQAPGKERELVASISRSGGNTYYADSVKGRFTISRDNAKNTGYLQMNSLKPEDTAVYYCAARFRVGQRRFNYWGQGTQVTVSS` ?
Found: high polyreactivity

Let us examine a further case.
Lookup: Consider the sequence shown here: `QVQLVESGGGLVQAGGSLRLSCAASGSIFGDYAMGWYRQAPGKERELVAAITSSGGITYYADSVKGRFTISLDNAKNTVYLQMKSLNPEDTAVYYCAAYGYGSNYRYTGYYYWGQGTQVTVSS` What is its recorded polyreactivity (PSR sort gate)?
Found: low polyreactivity
